test parameters: buffer; pH 7.4; 200.0 µM
attribute measured: solubility kinetic

C=CCn1c(O)c(CN2CCCCC2)c(C)c(C#N)c1=O = > 43.1 µg/mL
O=C(O)Cc1c[nH]c2ccc(O)cc12 = > 28.7 µg/mL
CC(C)(CO)NC(=O)C12CC3CC(CC(Br)(C3)C1)C2 = > 49.5 µg/mL
COc1cccc(C(=O)N(C)Cc2c(C)nn(C3CCS(=O)(=O)C3)c2C)c1 (stereo unspecified) = > 58.7 µg/mL
CCS(=O)(=O)c1c(S(=O)(=O)CC)c2ccccn2c1C(N)=O = > 51.7 µg/mL
Cc1ccc(OCCCC(=O)NCc2ccco2)c(C)c1 = > 43.1 µg/mL
O=C(Nc1cccnc1Cl)c1cccc(S(=O)(=O)N2CCOCC2)c1 = > 57.3 µg/mL
Cc1csc(SCC(=O)Nc2ccc(C)c(F)c2)n1 = > 44.5 µg/mL
CC(=O)Nc1ccc(S(=O)(=O)NCCC(=O)NC(C)c2cccs2)cc1 (stereo unspecified) = > 59.3 µg/mL
C=CCNC(=S)N1CCN(CCNC2=CC(=O)CC(C)(C)C2)CC1 = > 52.6 µg/mL
CC(=O)N1CCN(C(=O)COC(=O)/C=C/c2ccc(C(F)(F)F)cc2)CC1 = > 57.7 µg/mL

* * *

test parameters: buffer; pH 7.4; 200.0 µM
Listed here: items and their measured solubility kinetic.
attribute measured: solubility kinetic

CC(=O)c1ccccc1NC(=O)COC(=O)c1cc[n+]([O-])cc1 = > 47.1 µg/mL
CCCOc1ccc(Oc2nc(-c3ccncc3)nc3ccccc23)cc1 = < 0.3 µg/mL
COC(=O)CNC(=O)c1cc(-c2ccncc2)nc2ccccc12 = > 48.2 µg/mL
O=C1CCc2cc(S(=O)(=O)Nc3ccccc3Cl)ccc2N1 = > 50.5 µg/mL

* * *

test parameters: buffer; pH 7.4; 200.0 µM
attribute measured: solubility kinetic

O=C(O)CNC(=S)NCc1ccccc1 = > 33.6 µg/mL
COc1ccc(-n2ccnc2SCC(=O)NO)cc1 = > 41.9 µg/mL
Cc1cc(C(=O)N2CCC3(CC2)OCCO3)no1 = > 37.8 µg/mL
C/C(=N\NC(=O)c1cc(C)nc2ccccc12)c1ccco1 = > 44 µg/mL
CC(=O)N1C(=O)NC2=C(C(=O)CCC2)C1c1cccc([N+](=O)[O-])c1 (configuration not stated) = > 49.4 µg/mL
O=C(c1ccc2ccccc2n1)N1CCN(S(=O)(=O)c2ccccc2)CC1 = > 57.2 µg/mL
CC(=O)Nc1ccc(S(=O)(=O)N2CCCC(C(=O)O)C2)cc1 (configuration not stated) = > 49 µg/mL

* * *

test parameters: buffer; pH 7.4; 200.0 µM
attribute measured: solubility kinetic

Cc1cc(C)n2nc(C(=O)OCC(=O)N(CC(C)C)C3CCS(=O)(=O)C3)nc2n1 (configuration not stated) = > 63.5 µg/mL
CN(C)S(=O)(=O)c1ccc(NC=O)cc1 = > 34.2 µg/mL
CC1CCN(CCC(=O)N/N=C/c2ccc([N+](=O)[O-])cc2)CC1 = > 47.8 µg/mL
O=C(NCc1ccccn1)C1CCCCC1 = > 32.7 µg/mL
Cn1nc(C(=O)OCC(=O)NCCc2ccccc2)c2ccccc2c1=O = > 54.8 µg/mL
CCc1ccc2oc(C(=O)Nc3nonc3CC)c(C)c2c1 = < 0.2 µg/mL
C/C(N)=C(/C#N)C(=O)COC(=O)c1cccc(C)c1O = 1.5 µg/mL
CCOC(=O)C1(CC2CC2)CCN(S(=O)(=O)/C=C/c2ccccc2)CC1 = 3.6 µg/mL
Cc1ccc(NC(=O)C2CCCC2)c(Br)c1 = 8.6 µg/mL
O=C(Nc1ccc(F)cc1F)N1CCN(CCc2ccccc2)CC1 = 42.7 µg/mL
Clc1nn2cnnc2c2ccccc12 = > 30.7 µg/mL
O=C(NN1CCOCC1)c1ccco1 = > 29.4 µg/mL
O=[N+]([O-])c1ccccc1CNC1CCCc2ccccc21 (configuration not stated) = 20.8 µg/mL
Cc1cc(NC(=O)CCl)no1 = > 26.2 µg/mL
Cc1cccc(N2C(=O)C(Cl)=C(N3CCOCC3)C2=O)c1 = > 46 µg/mL
COc1ccc2c(c1)c(C(=O)O)c(C)n2-c1ccccc1 = 38.4 µg/mL
Cc1ccc(C(=O)N/C(=C/c2ccco2)C(=O)N2CCC(C)CC2)cc1 = > 52.9 µg/mL
